Experiment: reduction of polyQ htt aggregates in cells – imaging, exon1htt(103Q)mCFP cells, high-content imaging, primary screen (AID 483);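 also: compound exposure lasted 3 days before fixation; percent of the per-plate median nuclei count of sample wells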
Details: exon1htt(103Q)mCFP cell line, aggregate imaging, at 2 µM; measured here: cell count, toxicity
metric_name: nuclei count (%)
Give bare numbers, in %.

Items follow; give nuclei count for each.
1. O=C1COc2ccc(C(=O)NCc3ccco3)cc2N1
2. OCCN1CCN(CC(O)COc2ccc3ccccc3c2)CC1 (centres undefined)
3. COc1ccc(-c2noc(COc3ccc4ccccc4c3Br)n2)cc1OC
4. CCOC(=O)Cc1nn2c(=O)cc(C)nc2s1

[79.6, 101, 109, 118]

----------
Test: inhibitors of TNFa-induced NFkB p65 translocation, primary screen, imaging, HUVEC, MLSMR starter and 10KST1 sets (AID 438);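 also: compound added about 3h40 before a 20 min TNFalpha stimulation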
Conditions: HUVEC TNFa-induced p65 nuclear translocation; measured here: nuclei count (cytotoxicity indicator), at 2.08 µM
Classify by measured cell count: 1.0 if it is equal to or exceeds 600, 0.0 if it is smaller.

>  <compound>
COc1cccc(-c2cc(C(F)(F)F)n3nc(N)nc3n2)c1

>  <answer_label>
1.0

$$$$

API: above_or_equal(metric=cell count, cutoff=600) for item CCn1c2ccccc2c2cc(NC(=O)Cc3ccc(S(=O)(=O)N4CCOCC4)s3)ccc21
0.0

hey, is cell count for this one >= 600? CCOC(=O)c1cc2sccc2n1CC(=O)Nc1ccc(OC)cc1OC
0.0

Record CCOC(=O)CSc1nc2ccccc2c(=O)n1NC(=O)c1ccccc1 ; criterion: cell count no lower than 600. Met?
0.0

----------
Assay: endothelial E-selectin expression blockers – imaging, HUVEC, immunofluorescence, MLSMR starter and 10KST1 sets, primary screen (AID 487);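 also: signal is fraction of cell area covered by stained E-selectin grains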
Details: HUVEC TNFalpha-induced E-selectin immunofluorescence imaging, at 2 µM; stronger effect = higher value
Provide the reported inhibition of each item.
Answers are plain numbers, in %.

>  <compound>
Cc1cc2c(c(=O)n1CCc1ccccc1)C(C(C)C)C(C#N)=C(N)O2 (stereo unspecified)

>  <metric_name>
inhibition

>  <observed_value>
-39

$$$$

For every item below, please supply its inhibition.
1. COCCNC(=O)c1ccc(Cl)c(Cl)c1
2. CCn1c(Cc2ccc(OC)cc2)nnc1SCC(=O)Nc1cccc(C(=O)OC)c1
3. COc1ccc(-c2cc(C(F)(F)F)nc(SCC(=O)NCc3ccco3)n2)cc1OC
4. O=C(NCCN1CCOCC1)C1CC(=O)N(c2ccc(F)c(Cl)c2)C1 (stereo unspecified)
5. COc1cc2c(OC)cccc2cc1C(=O)O

4.3
-29.7
-20.4
-63.7
-12.2

----------
Target: Muscarinic acetylcholine receptor M4 (Homo sapiens) (UniProt P08173)
Sequence (P08173 whole entry, looked up): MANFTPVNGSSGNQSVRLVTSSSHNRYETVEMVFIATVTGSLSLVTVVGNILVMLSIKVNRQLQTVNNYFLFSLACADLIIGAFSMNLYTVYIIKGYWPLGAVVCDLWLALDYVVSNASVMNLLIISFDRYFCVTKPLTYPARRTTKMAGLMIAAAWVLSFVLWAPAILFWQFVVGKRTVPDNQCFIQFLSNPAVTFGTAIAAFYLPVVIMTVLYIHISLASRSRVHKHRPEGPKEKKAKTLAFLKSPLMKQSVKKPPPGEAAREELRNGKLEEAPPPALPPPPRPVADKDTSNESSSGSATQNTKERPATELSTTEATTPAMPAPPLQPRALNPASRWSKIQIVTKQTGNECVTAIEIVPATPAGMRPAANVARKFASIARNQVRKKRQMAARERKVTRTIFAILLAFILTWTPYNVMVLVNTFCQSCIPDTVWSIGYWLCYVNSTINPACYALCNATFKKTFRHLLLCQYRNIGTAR
Experiment: M4-linked GIRK flux change, two-sided – cell-based, HEK293 M4/GIRK, thallium flux, BTC-AM, M4 allosteric agonist project, primary screen (AID 625);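 also: thallium influx through GIRK channels coupled to M4 in HEK293 cells with BTC-AM dye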
Conditions: at 10 µM, actives lie on both sides
metric_name: fluorescence slope
Answers are plain numbers.

Look over these answered cases.
>  <compound>
CCSc1oc(-c2ccco2)nc1S(=O)(=O)c1ccccc1

>  <metric_name>
fluorescence slope

>  <observed_value>
0.00508

$$$$
>  <compound>
O=C(c1ccccc1)N1CCCCC(Sc2nnnn2-c2ccccc2)C1=O (stereo not given)

>  <metric_name>
fluorescence slope

>  <observed_value>
0.00399

$$$$
>  <compound>
CC(C(=O)N1c2ccc(F)cc2CCC1C)N1C(=O)c2ccccc2C1=O (stereo not given)

>  <metric_name>
fluorescence slope

>  <observed_value>
0.00501

$$$$
>  <compound>
CCCn1nc(NS(=O)(=O)c2ccccc2)c2cc3ccccc3nc21

>  <metric_name>
fluorescence slope

>  <observed_value>
0.00512

$$$$

Give recorded fluorescence slope. COc1ccc(-n2ncc3c(NCc4ccccn4)ncnc32)cc1
0.0051

----------
Molecular target: Voltage-gated potassium channel subunit beta-2 (Rattus norvegicus)
Assay: enhancers of rat Kvbeta2 NADPH turnover – biochemical, NADPH fluorescence, primary screen (AID 623);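 also: fluorescence intensity change per second fitted from 20 to 320 s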
Conditions: Recombinant KvBeta, NADPH fluorescence decrease slope, 10 min; at 10 µM; stronger effect = lower value
Active and inactive are the calls of the source.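 Rule for the calls: active = NADPH fluorescence slope more negative than the mean of all samples by about 3 SD, 99.7% confidence; inactive = the rest.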
Exercise: for every item that follows, state its recorded NADPH fluorescence slope.

Please review the entries below; each comes with its answer.
>  <compound>
COC(=O)c1nc2n(n1)C(c1ccc(OC)c(OC)c1)C(C(=O)OC1CCCCC1)=C(C)N2 (stereo not drawn)

>  <NADPH fluorescence slope>
-5.5e-05 (inactive)

$$$$
>  <compound>
NS(=O)(=O)c1cc2c(cc1Cl)NCNS2(=O)=O

>  <NADPH fluorescence slope>
1.8e-05 (inactive)

$$$$

Now, please, on to the next compound.
Supply NADPH fluorescence slope value. Item: CC(NC(=O)OCc1ccccc1)C(=O)N1CC(O)CC1C(=O)O (stereo not drawn)
-1.6e-05 (inactive)

----------
Assay: inhibitors of TNFa-induced NFkB p65 translocation, primary screen, imaging, HUVEC, MLSMR starter and 10KST1 sets (AID 438);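 also: compound added about 3h40 before a 20 min TNFalpha stimulation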
Details: HUVEC TNFa-induced p65 nuclear translocation; measured here: nuclei count (cytotoxicity indicator), at 2.08 µM
Classes by cell count: band A: < 400; band B: ≥ 400 and < 500; band C: ≥ 500

# example entries with known answers
>  <molecule>
COc1ccccc1OCCn1c(=O)sc2ccccc21

>  <answer_label>
band B

$$$$
>  <molecule>
COc1ccccc1OCc1ccc(C(=O)OCC2CCCO2)o1 (stereo not given)

>  <answer_label>
band C

$$$$
>  <molecule>
COC(=O)c1c(NC(=O)c2ccc(S(=O)(=O)N3CCOCC3)cc2)sc2c1CCN(C)C2

>  <answer_label>
band A

$$$$
>  <molecule>
CCNC(=O)CC(=O)Nc1ccccc1C(=O)O

>  <answer_label>
band C

$$$$
>  <molecule>
COCCn1c(SCC(=O)Nc2nnc(C)s2)nnc1-c1c[nH]c2ccccc12

>  <answer_label>
band C

$$$$

State the band of Cc1ccc(C(=O)Nc2ccc3c(c2)OCO3)o1
band B

Given COc1ccc(S(=O)(=O)n2ccnc2)c2cccnc12 , name the class its cell count places it in.
band B

Please indicate the class for O=C1CC(c2ccco2)=Nc2ccccc2N1 based on its cell count.
band A

Classify this molecule: Cc1nnc(C)n1/N=C/c1cccc(Oc2ccccc2)c1
band A

----------
Test: Primary imaging screen for DUSP6 inhibitors that restore phospho-Erk in transfected HeLa cells, chemical complementation (AID 609)
Conditions: HeLa MKP-3 transfected, phospho-Erk imaging KS statistic; measured here: cell density z-score; at 10 µM; cells stimulated with TPA for 15 min
We use -0.1 as the dividing line for z-score: on or above the line is fulfilled, below is not fulfilled.

>  <compound>
CC(=O)OCC1=C(C(=O)O)N2C(=O)[C@@H](NC(=O)Cc3cccs3)[C@H]2SC1

>  <answer_label>
not fulfilled

$$$$
>  <compound>
COc1ccc[nH]c1=O

>  <answer_label>
not fulfilled

$$$$

Identify whether the reported z-score of the following compound is -0.1 or greater: CC1(C)CC(=O)C(C=N)=C(O)C1
not fulfilled

hey, is z-score for this one >= -0.1? NC(N)=Nc1nc(CSCC/C(N)=N/S(N)(=O)=O)cs1
not fulfilled

Record Cc1nnc(NS(=O)(=O)c2ccc(N)cc2)s1 ; criterion: z-score no lower than -0.1. Met?
fulfilled

Does the compound CC(C)c1nc2sc3c(c2c(=O)o1)CCCC3 have recorded z-score that is -0.1 or more?
not fulfilled

Is z-score for COc1ccc(CCN(C)CCCC(C#N)(c2ccc(OC)c(OC)c2)C(C)C)cc1OC (stereo not given) at or above -0.1?
not fulfilled

Item CCOC(=O)c1ccc(NCC(O)COc2ccccc2)cc1 (stereo not given) with z-score of -0.1 or above?
fulfilled

Identify whether the reported z-score of the following compound is -0.1 or greater: CCC1=Nc2ccccc2NC2=C1C(=O)CCC2
not fulfilled

----------
Test: inhibitors of TNFa-induced NFkB p65 translocation, primary screen, imaging, HUVEC, MLSMR starter and 10KST1 sets (AID 438);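 also: compound added about 3h40 before a 20 min TNFalpha stimulation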;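 as to inhibition: signal is the nuclear over cytoplasmic p65 intensity ratio per well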
Settings: HUVEC TNFa-induced p65 nuclear translocation; at 2 µM, stronger effect = higher value, 0% TNFa-plus-vehicle, 100% no-TNFa wells
metric_name: inhibition (%)
Numbers only, in %.

>  <molecule>
Cc1cc(C)c2oc(=O)cc(CN3CCOCC3)c2c1

>  <unit_of_measurement>
%

>  <inhibition>
2

$$$$
>  <molecule>
COc1cc(CC(=O)Nc2ncc(C)s2)cc(OC)c1OC

>  <unit_of_measurement>
%

>  <inhibition>
-6.7

$$$$
>  <molecule>
COc1ccc(-c2noc(COc3ccc4ccccc4c3Br)n2)cc1OC

>  <unit_of_measurement>
%

>  <inhibition>
14.8

$$$$
>  <molecule>
Cc1nn(-c2ccc(F)cc2)c2nc(N)c(C#N)c(-c3cccs3)c12

>  <unit_of_measurement>
%

>  <inhibition>
5.7

$$$$
>  <molecule>
Cc1cc(Cl)c(S(=O)(=O)NC2CCCCC2)cc1OCC(=O)Nc1nncs1

>  <unit_of_measurement>
%

>  <inhibition>
-21.3

$$$$

# map each molecule to its inhibition
1. COc1ccc(-n2ncc3c(NCc4ccccn4)ncnc32)cc1
2. O=C(CSC1=NC(=O)C(Cc2ccccc2)C(=O)N1)NC1CCCCC1 (configuration not stated)
3. Cc1nc2ccc(S(=O)(=O)NCC(=O)O)cc2s1
4. Cc1ccc(-c2noc(C3CCCN(C(=O)c4ccc(F)cc4F)C3)n2)cc1 (configuration not stated)

1: -1.9; 2: -9.8; 3: 5.2; 4: -11.3

Give inhibition for each listed item.
1. O=C(Nc1ncnc2sc3c(c12)CCCCC3)c1ccco1
2. Cc1cc(C)nc(SCc2nnc(SCc3ccccc3Cl)o2)n1
3. COc1ccc2c(c1)CCc1c(C(=O)N3CCCc4ccccc43)noc1-2
4. C=CCSc1nnc(-c2ccccc2NC(C)=O)c(=O)[nH]1
5. O=c1c2nnn(Cc3ccccc3)c2ncn1-c1ccccc1

[-7, -8.3, -4.5, -33.6, -8.6]

Record inhibition for all entries; do not skip any.
1. O=C1c2oc3ccccc3c(=O)c2C(c2ccccn2)N1Cc1ccccc1 (configuration not stated)
2. COc1cccc(-n2nnc3c(=O)n(Cc4cccc(F)c4)cnc32)c1
3. CCCCCn1c(=O)[nH]c2cc(C(=O)NCCCN3CCCCC3)ccc2c1=O
4. COc1cc(OC)c(C(=O)Nc2ccc(N(C)C)cc2)cc1OC
5. CCOc1cc2[nH]c(=O)n(CCCCC(=O)N3CCCCCC3)c(=O)c2cc1OCC
6. CCOc1ccc(OCC)c(NC(=O)C2CCN(S(=O)(=O)c3cnc[nH]3)CC2)c1
7. Cc1ccc(-n2c(=O)c3sccc3n(CC(=O)NCc3ccco3)c2=O)cc1
8. CC(O)CN(Cc1cccc(Cl)c1)CC(C)O (configuration not stated)

-8.7
-1.7
-2.1
5.2
2.2
-1.3
0.3
0.5

Return reported inhibition values for all items listed beneath this line.
1. COc1ccccc1NC(=O)C(O)C(O)C(=O)Nc1ccccc1OC (configuration not stated)
2. Cc1ccc(S(=O)(=O)NCCNC(=O)c2ccccc2)cc1
3. COc1cccc(N2CCN(Cc3nc(N)nc(Nc4ccccc4OC)n3)CC2)c1
4. CC(=O)CC(=O)Nc1ccccc1NC(C)=O
5. Cc1cccc2cc(C(c3nnnn3C(C)(C)C)N3CCN(C(=O)c4ccco4)CC3)c(=O)[nH]c12 (configuration not stated)
6. CCOC(=O)COc1ccc(S(=O)(=O)N2CCc3ccccc3C2)cc1

1. 8.6
2. -4.9
3. 2.9
4. 6.5
5. -1.9
6. 3.3
